# assay.target: Lsr2BD WT (Mycobacterium tuberculosis H37Rv, UniProt P9WIP7 66-112)
# run.description: fluorescence anisotropy; pH 7.5; 4 nM DNA
# reported.conditions: protein: recombinant; tags: 6xHis; label: 5' Alexa Fluor 488; blunt
experimental.endpoint: pKd
Convention used: pKd is expressed as -log10 of the molar concentration.

Query: Fill in the blank: the reported pKd of AT-rich 14-mer (dsDNA) DNA 1: CGCGCATATATGCG DNA 2: CGCATATATGCGCG is ____.
Result: 6.68
